test system: Mycobacterium tuberculosis; test: Antimycobacterial activity against Mycobacterium tuberculosis H37Rv CNCTC My 331/88 after 21 days by micromethod; type: functional; conditions: H37Rv CNCTC My 331/88, 504 h
Quantity measured: log10(MIC99) (log10 of the value in µM)
On a log10 scale: recorded MIC99, unit µM.

In: Quick one: log10(MIC99) of `O=[N+]([O-])c1cc(-c2nnn(Cc3ccccc3)n2)cc([N+](=O)[O-])c1` ?
Out: 0.00

In: Any idea what log10(MIC99) was measured for `O=[N+]([O-])c1cc(-c2nnn(Cc3cccc(Br)c3)n2)cc([N+](=O)[O-])c1` ?
Out: -0.60

In: Please look up its log10(MIC99): `O=[N+]([O-])c1cc(-c2nnn(CSc3nnnn3Cc3ccccc3)n2)cc([N+](=O)[O-])c1`
Out: -0.90

In: Entry `O=[N+]([O-])c1cc(-c2nnn(Cc3ccc(F)cc3)n2)cc([N+](=O)[O-])c1` has what log10(MIC99)?
Out: -0.30

In: Sample `COc1ccc(Cn2nnc(-c3cc([N+](=O)[O-])cc([N+](=O)[O-])c3)n2)cc1` — what was its log10(MIC99)?
Out: -1.52

In: I have this molecule here, `O=[N+]([O-])c1cc(-c2nnn(Cc3cccc(Cl)c3)n2)cc([N+](=O)[O-])c1` , and I need its recorded log10(MIC99).
Out: -0.30

In: Report log10(MIC99) for `O=[N+]([O-])c1cc(-c2nnn(CCSc3nnnn3-c3ccc(Br)cc3)n2)cc([N+](=O)[O-])c1` please.
Out: -0.30

In: Query: log10(MIC99); subject: `O=[N+]([O-])c1cc(-c2nnnn2Cc2ccc(Cl)cc2)cc([N+](=O)[O-])c1`
Out: 0.60

In: I would be grateful if you could share the reported log10(MIC99) for `CCCCCCCCCCCCn1nnc(-c2cc([N+](=O)[O-])cc([N+](=O)[O-])c2)n1` .
Out: 0.30

In: Value lookup for log10(MIC99); key = `O=[N+]([O-])c1cc(-c2nnn(CSc3nnnn3C3CCCCC3)n2)cc([N+](=O)[O-])c1`
Out: -1.52

In: Which log10(MIC99) reading was recorded for the molecule `O=[N+]([O-])c1cc(-c2nnn(Cc3ccc(Br)cc3)n2)cc([N+](=O)[O-])c1` ?
Out: -0.60

In: For the molecule shown here, `O=[N+]([O-])c1cc(-c2nnn(CCCCSc3nnnn3-c3ccc(Br)cc3)n2)cc([N+](=O)[O-])c1` , give the reported log10(MIC99).
Out: -0.30

In: Could you tell me which log10(MIC99) is on file for `O=[N+]([O-])c1cc(-c2nnn(CCCSc3nnnn3-c3ccc(Br)cc3)n2)cc([N+](=O)[O-])c1` ?
Out: -0.30

In: Consider the molecule shown here: `O=[N+]([O-])c1cc(-c2nnn(Cc3ccc(Cl)cc3)n2)cc([N+](=O)[O-])c1` What is its recorded log10(MIC99)?
Out: -0.60

In: Could you tell me which log10(MIC99) is on file for `O=[N+]([O-])c1cc(-c2nnn(Cc3cccc(F)c3)n2)cc([N+](=O)[O-])c1` ?
Out: 0.00

In: Which measured log10(MIC99) value corresponds to `CCCCCCCCCCCCCCCCn1nnnc1SCn1nnc(-c2cc([N+](=O)[O-])cc([N+](=O)[O-])c2)n1` ?
Out: 0.90

In: Need log10(MIC99) of `Cn1nnnc1SCn1nnc(-c2cc([N+](=O)[O-])cc([N+](=O)[O-])c2)n1` , thanks.
Out: 0.30

In: Please look up its log10(MIC99): `COc1ccc(Cn2nnnc2-c2cc([N+](=O)[O-])cc([N+](=O)[O-])c2)cc1`
Out: 0.90
